Data credit: PubChem BioAssay (NCI)

tested on: A498 renal; assay: NCI-60 one-dose screen, 48 h (100 = growth as untreated, 0 = no growth, -100 = all killed); details: 10 µM unless noted
Compounds without any hit were thinned out: in the full panel of roughly 83,000, 20% have a hit.
test readout: growth (%)
Answer in %, number only, no unit symbol.

Incoming: Which growth is reported for this compound? CCOC(=O)c1cc2c(n1Cc1cccc(OC)c1)-c1oncc1CCC2
Outgoing: 6.51

* * *

This listing pairs compounds with measured growth.
Tested on: HOP-92 NSCLC
Experiment: NCI-60 one-dose screen, 48 h (100 = growth as untreated, 0 = no growth, -100 = all killed)
Conditions: 10 µM unless noted
Experimental: Growth inhibition of the HOP-92 human Non-Small Cell Lung tumor cell line is measured as a screen for anti-cancer activity. Cells are grown in 96 well plates and exposed to the test compound for 48 hours. Compounds are tested at a single concentration, which is 10^-5 M for most compounds. The reported endpoint is percent growth (GI% or GIPRCNT), where numbers from 0 - 100% represent growth inhibition, and numbers from -100% - 0 represent cell death. […]
This is part of a sample that, as a whole, favours compounds with a hit. Of some 83,000 tested, about 20% had one in any assay. The source made the active and inactive calls. The calls were made as follows: active = growth percent below 10; inactive = the rest.

Some compounds with known growth results, for comparison:
O=C(CSc1nc2ccccc2c(=O)n1-c1ccccc1)Nc1ccc(C(=O)/C=C/c2ccc(Cl)cc2)cc1	97.1% (inactive)
O=c1oc2ccc(F)cc2c(=O)n1-c1ccc(F)cc1F	-29% (active)

Please turn your attention to the following entry.
Incoming: Can you look up growth on HOP-92 NSCLC for CC[C@H](C)[C@@H](C(=O)OC)n1cc(CNC(=O)[C@@H](Cc2ccccc2)NC(=O)OCc2ccccc2)nn1 ?
Outgoing: 96.4% (inactive)

* * *

test system: RPMI-8226 leukemia; assay: NCI-60 one-dose screen, 48 h (100 = growth as untreated, 0 = no growth, -100 = all killed); settings: 10 µM unless noted
The panel holds about 83,000 compounds, 20% with a hit somewhere; the sample as a whole holds those more often.
test readout: growth (%)
Respond with the bare value in %.

Consider the reported growth for these compounds:
O=C(Cc1ccccc1)NC(c1ccc(Cl)cc1)c1c(O)ccc2ccccc12 (stereo not drawn)	-20.8
CCCCN1CCN(c2ccc3nc(-c4ccc5nc(-c6ccc(C(F)(F)F)cc6)[nH]c5c4)[nH]c3c2)CC1	-35.3

With those in mind, consider the next compound.
Incoming: Quick one: growth for COc1ccccc1N1CCN(C(CNS(=O)(=O)c2ccc(Cl)cc2)c2cccnc2)CC1 (stereo not drawn) ?
Outgoing: 27.5

* * *

growth by entry:
System: UO-31 renal
Assay: NCI-60 one-dose screen, 48 h (100 = growth as untreated, 0 = no growth, -100 = all killed)
Conditions: 10 µM unless noted
Protocol: Growth inhibition of the UO-31 human tumor cell line is measured as a screen for anti-cancer activity. Cells are grown in 96 well plates and exposed to the test compound for 48 hours. Compounds are tested at a single concentration, which is 10^-5 M for most compounds. The reported endpoint is percent growth (GI% or GIPRCNT), where numbers from 0 - 100% represent growth inhibition, and numbers from -100% - 0 represent cell death. For example, a value of 40 represents 60% growth inhibition. […]
This is part of a sample that, as a whole, favours compounds with a hit. Of some 83,000 tested, about 20% had one in any assay.
Give the value, in units of %, as a plain number.

COc1cccc2c1C=C1CCCCC3=Cc4c(OC)cccc4OC13O2	44.5

Incoming: Need growth of Cc1ccc2cccc(Oc3ccc(Nc4ncnc5onc(-c6ccccc6)c45)cc3)c2n1 , thanks.
Outgoing: 55.6

Incoming: // lookup growth for O=c1c2cc(F)ccc2sc2c(NCCCNCCO)nc3ccc(Cl)cc3c12
Outgoing: 58.5

Incoming: # lookup: growth of COc1ccccc1C(=O)/C=C/c1ccccc1
Outgoing: 73.4
